Biological target: human estrogen receptor β receptor (hERβ) (Homo sapiens)
Construct: expressed in transfected cells; host or cells: Chinese hamster ovary (CHO) cells, stably co-transfected with hERβ, rat oxytocin promoter and luciferase reporter
Sequence (Q92731 whole entry): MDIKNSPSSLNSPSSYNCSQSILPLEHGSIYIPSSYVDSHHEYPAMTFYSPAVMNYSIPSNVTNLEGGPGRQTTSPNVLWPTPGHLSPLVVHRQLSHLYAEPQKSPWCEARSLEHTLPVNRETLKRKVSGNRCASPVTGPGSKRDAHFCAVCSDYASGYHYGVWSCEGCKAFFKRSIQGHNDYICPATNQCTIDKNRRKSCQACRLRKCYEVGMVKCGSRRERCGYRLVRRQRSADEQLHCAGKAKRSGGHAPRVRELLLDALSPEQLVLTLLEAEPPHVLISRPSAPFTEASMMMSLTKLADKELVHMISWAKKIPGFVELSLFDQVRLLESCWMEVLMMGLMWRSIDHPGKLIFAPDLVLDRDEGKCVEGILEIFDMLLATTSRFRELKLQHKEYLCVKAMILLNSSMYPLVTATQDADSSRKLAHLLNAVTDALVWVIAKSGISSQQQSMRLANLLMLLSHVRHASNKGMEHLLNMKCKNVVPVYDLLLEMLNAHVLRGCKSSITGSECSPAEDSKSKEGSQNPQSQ
Test: transactivation assay, estrogenic activity, recombinant CHO cells co-transfected with hERβ, rat oxytocin promoter and luciferase reporter
Assay type: cell-based
Settings: potency % relative to 17β-estradiol; CHO cells, hERβ, luciferase reporter
Attribute Measured: ERβ Transactivation (Potency Transactivation (ERβ))

In the examples that follow, each entry is paired with its recorded ERβ Transactivation (Potency Transactivation (ERβ)).
[[record]]
molecule = "CCCC(=O)Oc1ccc2c(c1)Cc1c-2nc2ccc(OC(=O)CCC)cc2c1Br"
result = "+ (between 0.1-4%)"

[[record]]
molecule = "Oc1ccc2c(c1)Cc1c-2cc2ccc(O)cc2c1I [Compound 67c]"
result = "+++ (>10%)"

[[record]]
molecule = "CCCC(=O)Oc1ccc2c(c1)Cc1c-2nc2ccc(OC(=O)CCC)cc2c1Cl"
result = "++ (between 4-10%)"

[[record]]
molecule = "CC(C)(C)C(=O)Oc1ccc2c(c1)Cc1c-2cc2ccc(OC(=O)C(C)(C)C)cc2c1Cl [Compound 68a]"
result = "++ (between 4-10%)"

[[record]]
molecule = "Oc1ccc2c(c1)Cc1cc3cc(O)ccc3c(Cl)c1-2"
result = "+++ (>10%)"

[[record]]
molecule = "Oc1ccc2c(c1)Cc1cc3ccc(O)cc3cc1-2 [Compound 25, 2,7-dihydroxy-11H-benzo[b]fluorene]"
result = "+ (between 0.1-4%)"

[[record]]
molecule = "COc1ccc2c(c1)Cc1c-2nc2ccc(OC)cc2c1Br"
result = "+ (between 0.1-4%)"


**Query** Consider the molecule Oc1ccc2c(c1)Cc1c-2cc2ccc(O)cc2c1Br [Compound 67b] and give its measured ERβ Transactivation (Potency Transactivation (ERβ)).
**Result** +++ (>10%)

* * *

Target: human estrogen receptor β receptor (hERβ) (Homo sapiens)
Construct: expressed in transfected cells; host or cells: Chinese hamster ovary (CHO) cells, stably co-transfected with hERβ, rat oxytocin promoter and luciferase reporter
Experiment: transactivation assay, estrogenic activity, recombinant CHO cells co-transfected with hERβ, rat oxytocin promoter and luciferase reporter
Format: cell-based
Conditions: ratio of transactivation potency hERβ over hERα
Attribute Measured: β/α ratio Transactivation

[[record]]
compound = "Oc1ccc2c(c1)Cc1c-2cc2ccc(O)cc2c1I [Compound 67c]"
attribute_measured = "β/α ratio Transactivation"
result = "+++ (>30)"

[[record]]
compound = "Oc1ccc2c(c1)Cc1c-2cc2ccc(O)cc2c1Cl [Compound 67a]"
attribute_measured = "β/α ratio Transactivation"
result = "+++ (>30)"

[[record]]
compound = "CCCC(=O)Oc1ccc2c(c1)Cc1c-2nc2ccc(OC(=O)CCC)cc2c1Cl"
attribute_measured = "β/α ratio Transactivation"
result = "++ (between 10-30)"

[[record]]
compound = "Oc1ccc2c(c1)Cc1cc3cc(O)ccc3cc1-2 [Compound 69, 2,8-dihydroxy-11H-benzo[b]fluorene]"
attribute_measured = "β/α ratio Transactivation"
result = "+ (between 3.5-10)"

[[record]]
compound = "Oc1ccc2c(c1)Cc1c-2cc2ccc(O)cc2c1Br [Compound 67b]"
attribute_measured = "β/α ratio Transactivation"
result = "+++ (>30)"

[[record]]
compound = "COc1ccc2c(c1)Cc1c-2nc2ccc(OC)cc2c1Cl"
attribute_measured = "β/α ratio Transactivation"
result = "+ (between 3.5-10)"

[[record]]
compound = "Oc1ccc2c(c1)Cc1c-2cc2ccc(O)cc2c1C(F)(F)F [Compound 67e]"
attribute_measured = "β/α ratio Transactivation"
result = "++ (between 10-30)"

[[record]]
compound = "Cc1c2c(cc3ccc(O)cc13)-c1ccc(O)cc1C2 [Compound 67d]"
attribute_measured = "β/α ratio Transactivation"
result = "++ (between 10-30)"


**Query** Item CCCC(=O)Oc1ccc2c(c1)Cc1c-2nc2ccc(OC(=O)CCC)cc2c1Br with human estrogen receptor β receptor (hERβ) (Homo sapiens) - β/α ratio Transactivation?
**Result** ++ (between 10-30)

**Query** Value wanted: β/α ratio Transactivation (human estrogen receptor β receptor (hERβ) (Homo sapiens)) of entry COc1ccc2c(c1)Cc1c-2nc2ccc(OC)cc2c1Br
**Result** ++ (between 10-30)

**Query** human estrogen receptor β receptor (hERβ) (Homo sapiens) / β/α ratio Transactivation / Oc1ccc2c(c1)Cc1cc3cc(O)ccc3c(Cl)c1-2 : value?
**Result** +++ (>30)

**Query** Please state recorded β/α ratio Transactivation (tested on human estrogen receptor β receptor (hERβ) (Homo sapiens)) of CC(C)(C)C(=O)Oc1ccc2c(c1)Cc1c-2cc2ccc(OC(=O)C(C)(C)C)cc2c1Cl [Compound 68a]
**Result** +++ (>30)
